# System: KB
# Assay Method Text: Cellular toxicity in KB cells
# Type: functional
# Measurement Setup: Homo sapiens
Each record is given Satisfied if its reported CC50 is strictly below 10 µg/mL. Records at or above 10 µg/mL are given Not satisfied.

| Smiles | Label Value |
| --- | --- |
| CCOC(=O)c1ccc(OCCC2CCN(c3ccc(Cl)nn3)CC2)cc1 | Not satisfied |
| CC(C)S(=O)(=O)n1c(N)nc2ccc(/C(=N/O)c3ccccc3)cc21 | Satisfied |
| C=CCO/N=C/c1ccc(OCCC2CCN(c3ccc(Cl)nn3)CC2)cc1 | Satisfied |
| Clc1ccc(N2CCC(CCOc3ccc(/C=N/OCc4ccccc4)cc3)CC2)nn1 | Satisfied |
| CCC(=O)c1ccc(OCCC2CCN(c3ccc(Cl)nn3)CC2)cc1 | Satisfied |
| CCC/N=C/c1ccc(OCCC2CCN(c3ccc(Cl)nn3)CC2)cc1 | Not satisfied |
| NNC(=O)c1ccc(OCCC2CCN(c3ccc(Cl)nn3)CC2)cc1 | Not satisfied |
| CC(C)O/N=C/c1ccc(OCCC2CCN(c3ccc(Cl)nn3)CC2)cc1 | Satisfied |
| O=Cc1ccc(OCCC2CCN(c3ccc(Cl)nn3)CC2)cc1 | Not satisfied |

----------
# System: KB
# Assay Method Text: Cellular toxicity in KB cells
# Format: functional
# Measurement Setup: Homo sapiens
Measure: CC50 (µg/mL)

| Smiles | Measure | Qualifier Sign | Test Value |
| --- | --- | --- | --- |
| CO/N=C(\C)c1ccc(OCCC2CCN(c3ccc(C)nn3)CC2)cc1 | CC50 | > | 1 |
| CCO/N=C/c1ccc(OCCC2CCN(c3ccc(Cl)nn3)CC2)cc1 | CC50 | = | 0.8 |
| CC(C)O/N=C/c1ccc(OCCC2CCN(c3ccc(Cl)nn3)CC2)cc1 | CC50 | = | 0.7 |
| CCO/N=C(\C)c1ccc(OCCC2CCN(c3ccc(C)nn3)CC2)cc1 | CC50 | > | 1 |
| Cc1ccc(N2CCC(CCOc3ccc(/C=N/O)cc3)CC2)nn1 | CC50 | > | 0.25 |
| CO/N=C/c1ccc(OCCC2CCN(c3ccc(C)nn3)CC2)cc1 | CC50 | > | 1 |
| CC/C(=N\OC)c1ccc(OCCC2CCN(c3ccc(Cl)nn3)CC2)cc1 | CC50 | = | 0.6 |
| C=CCO/N=C/c1ccc(OCCC2CCN(c3ccc(Cl)nn3)CC2)cc1 | CC50 | = | 0.4 |
| CCCO/N=C/c1ccc(OCCC2CCN(c3ccc(Cl)nn3)CC2)cc1 | CC50 | = | 0.4 |
| Clc1ccc(N2CCC(CCOc3ccc(/C=N/OCc4ccccc4)cc3)CC2)nn1 | CC50 | = | 0.6 |

----------
# Tested on: KB
# Assay Method Text: Cellular toxicity in KB cells
# Format: functional
# Measurement Setup: Homo sapiens
Measure: CC50

| Smiles | Test Value |
| --- | --- |
| CCCO/N=C/c1ccc(OCCC2CCN(c3ccc(Cl)nn3)CC2)cc1 | > 1 mg/L |
| CN/N=C/c1ccc(OCCC2CCN(c3ccc(Cl)nn3)CC2)cc1 | 10 mg/L |
| CCO/N=C(\C)c1ccc(OCCC2CCN(c3ccc(C)nn3)CC2)cc1 | > 1 mg/L |
| Cc1ccc(N2CCC(CCOc3ccc(/C=N/O)cc3)CC2)nn1 | > 0.25 mg/L |
| CO/N=C/c1ccc(OCCC2CCN(c3ccc(C)nn3)CC2)cc1 | > 1 mg/L |
| CO/N=C(\C)c1ccc(OCCC2CCN(c3ccc(C)nn3)CC2)cc1 | > 1 mg/L |
| CC/C(=N\OC)c1ccc(OCCC2CCN(c3ccc(Cl)nn3)CC2)cc1 | > 1 mg/L |
